Source: paper PMC11466185

# Test system: HIV transcripts (TAR, LLTR, Pol, PolyA, TatRev)
# Measurement Description: Cell-associated HIV transcripts (RT-ddPCR) 6 days after anti-CD3/CD28 activation of PBMCs from ART-suppressed PWH
# Format: cell-based
# Stated Conditions: participant 2750; DMSO+CD3/28 = 1; Fig 4B, C and D
Endpoint: TatRev/PolyA
Answer as a number with no unit attached.

Some compounds with known TatRev/PolyA results, for comparison:
Compound	TatRev/PolyA
C=CCNC1=C2C[C@@H](C)C[C@H](OC)[C@H](O)[C@@H](C)/C=C(\C)[C@H](OC(N)=O)[C@@H](OC)/C=C\C=C(/C)C(=O)NC(=CC1=O)C2=O [tanespimycin]	0
N#CC[C@H](C1CCCC1)n1cc(-c2ncnc3[nH]ccc23)cn1 [ruxolitinib]	1.555
CC(=O)N[C@@H]1CCC[C@H](C(=O)Nc2cc(-c3cnn4c3CC(C)(C)C4)c(Cl)cn2)C1 [AZD4573]	0.2617

get_value(item= CCc1cnn2c(NCc3ccc[n+]([O-])c3)cc(N3CCCC[C@H]3CCO)nc12 [dinaciclib] , readout=TatRev/PolyA) returns 0.2646

----------
# Test system: HIV transcripts (TAR, LLTR, Pol, PolyA, TatRev)
# Measurement Description: Baseline HIV transcription without activation, PBMCs from ART-suppressed PWH, 24 hours
# Format: cell-based
# Stated Conditions: participant 2027; no activation; ruxolitinib 4μM, dinaciclib 8nM, AZD4573 8nM, pladienolide B 10nM, KRIBB11 2.5μM
Endpoint: Pol HIV transcripts (DMSO = 100)
Give the figure only, with no unit attached.

See these solved cases before continuing.
>>> df
                                smiles_code                          endpoint  reported
0  CCc1cnn2c(NCc3ccc[n+]([O-])c3)cc(N3CCCC[C@H]3CCO)nc12  Pol HIV transcripts (DMSO = 100)    131.38
1  CNc1ccc([N+](=O)[O-])c(Nc2ccc3[nH]ncc3c2)n1  Pol HIV transcripts (DMSO = 100)     64.26
2  N#CC[C@H](C1CCCC1)n1cc(-c2ncnc3[nH]ccc23)cn1  Pol HIV transcripts (DMSO = 100)     74.54

Consider the record given below.
The value of Pol HIV transcripts (DMSO = 100) recorded for "CC(=O)N[C@@H]1CCC[C@H](C(=O)Nc2cc(-c3cnn4c3CC(C)(C)C4)c(Cl)cn2)C1" when tested on HIV transcripts (TAR, LLTR, Pol, PolyA, TatRev) reads 30.35

----------
# Test system: PolyA HIV RNA in the supernatant
# Measurement Description: Supernatant viral RNA (polyadenylated HIV RNA, RT-ddPCR) at day 6 after T cell activation
# Assay type: cell-based
# Stated Conditions: study participant 2147b; day 6
Endpoint: Polyadenylated HIV RNA in supernatant (Fig 5)

For orientation, consider the following solved cases.
In [3]: df
Out[3]:
                                   compound                         tested_on                   reported
0  CCc1cnn2c(NCc3ccc[n+]([O-])c3)cc(N3CCCC[C@H]3CCO)nc12  PolyA HIV RNA in the supernatant      0 % of activated DMSO
1  C=CCNC1=C2C[C@@H](C)C[C@H](OC)[C@H](O)[C@@H](C)/C=C(\C)[C@H](OC(N)=O)[C@@H](OC)/C=C\C=C(/C)C(=O)NC(=CC1=O)C2=O  PolyA HIV RNA in the supernatant      0 % of activated DMSO
2  CO[C@H]([C@@H](C)[C@H]1O[C@]1(C)C[C@H](C)/C=C/C=C(\C)[C@H]1O[C@@H](CC(=O)O)CC[C@@H]1C)[C@@H](C)O  PolyA HIV RNA in the supernatant      0 % of activated DMSO
3  CN1CC[C@H](c2c(O)cc(O)c3c(=O)cc(-c4ccccc4Cl)oc23)[C@H](O)C1  PolyA HIV RNA in the supernatant      0 % of activated DMSO
4  CNc1ccc([N+](=O)[O-])c(Nc2ccc3[nH]ncc3c2)n1  PolyA HIV RNA in the supernatant  47.37 % of activated DMSO
5  N#CC[C@H](C1CCCC1)n1cc(-c2ncnc3[nH]ccc23)cn1  PolyA HIV RNA in the supernatant      0 % of activated DMSO
6  O=c1c(O)c(-c2ccc(O)c(O)c2)oc2cc(O)cc(O)c12  PolyA HIV RNA in the supernatant    8.6 % of activated DMSO
7  CC(C)[C@]12O[C@H]1[C@@H]1O[C@]13[C@]1(O[C@H]1C[C@H]1C4=C(CC[C@@]13C)C(=O)OC4)[C@@H]2O [triptolide]  PolyA HIV RNA in the supernatant      0 % of activated DMSO

Memo: "CC(=O)N[C@@H]1CCC[C@H](C(=O)Nc2cc(-c3cnn4c3CC(C)(C)C4)c(Cl)cn2)C1" , reported Polyadenylated HIV RNA in supernatant (Fig 5): 0.7 % of activated DMSO

Sample "COc1ccc(-c2cc(=O)c3c(O)cc(O)c(-c4cc(-c5cc(=O)c6c(O)cc(O)cc6o5)ccc4OC)c3o2)cc1" ; Polyadenylated HIV RNA in supernatant (Fig 5) observed: 63.16 % of activated DMSO
